SYSTEM NAME: human TASK-1 (Homo sapiens (Human), UniProt O14649)
Sequence (O14649 whole entry): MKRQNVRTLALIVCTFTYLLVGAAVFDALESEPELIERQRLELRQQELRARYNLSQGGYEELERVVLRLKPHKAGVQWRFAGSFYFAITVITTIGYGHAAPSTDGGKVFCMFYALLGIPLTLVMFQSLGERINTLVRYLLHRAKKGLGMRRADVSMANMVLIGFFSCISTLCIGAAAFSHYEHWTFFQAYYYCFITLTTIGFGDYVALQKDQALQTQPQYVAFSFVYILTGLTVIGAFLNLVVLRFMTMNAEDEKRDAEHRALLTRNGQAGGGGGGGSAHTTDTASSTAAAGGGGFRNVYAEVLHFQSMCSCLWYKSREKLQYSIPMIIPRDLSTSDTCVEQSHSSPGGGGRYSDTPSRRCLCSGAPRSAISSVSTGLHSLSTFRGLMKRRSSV
EXPERIMENT DESCRIPTION: Two-electrode voltage clamp analysis of human TASK-1 channel in Xenopus laevis oocytes
Format: cell-based
DETAILS: human TASK-1 expressed in Xenopus laevis oocytes, room temperature
QUANTITY: IC50 (nM)
Form entry: value (nM) — number only.

Hello, please tell me recorded IC50 for this one: CC(C)c1ccc(-c2nc3ncccn3c2CN2CC3CCC2CN3C(=O)c2ncoc2C2CC2)cc1 (single isomer, unassigned) [Example 27] 17.9

Please report IC50 for the following compound: CC(C)c1ccc(-c2nc3ncccn3c2CN2CC3COCC(C2)N3C(=O)c2cccc(OC(F)F)n2)cc1 [Example 19] 239

// Input: COc1ccc(Cl)c(C(=O)N2CC3CCC2CN3Cc2c(-c3ccc(C(C)C)cc3)nc3ncccn23)n1 (single isomer, unassigned) [Example 26] . Output its IC50 only. 31.2

Output measured IC50 for this item: COc1ccc(F)c(C(=O)N2CC3CCC2CN3Cc2c(-c3ccc(Cl)cc3)nc3ncccn23)n1 (stereo not shown) [Example 41] 44.4
